Where do the numbers come from? From ChEMBL document CHEMBL1687913.

System: Streptococcus pyogenes
Experiment: Antibacterial activity against Streptococcus pyogenes ATCC 21547 after 18 to 20 hrs by microbroth dilution method
Format: functional
Where a SMILES comes first, the peptide text is derived from it.
metric name: MIC (µM)
Give bare numbers, in µM.

For each entry beneath this line, provide reported MIC.
1. CC[C@H](C)[C@H](NC(=O)[C@H](CCCCN)NC(=O)CNC(=O)[C@H](CC(C)C)NC(=O)[C@H](Cc1ccccc1)NC(=O)[C@H](CCCCN)NC(=O)[C@H](CO)NC(=O)[C@H](Cc1ccccc1)NC(=O)[C@H](Cc1c[nH]c2ccccc12)NC(=O)[C@H](CCC(N)=O)NC(=O)[C@@H](NC(=O)[C@@H](N)Cc1ccccc1)C(C)C)C(=O)N[C@@H](CC(C)C)C(N)=O (H-FVQWFSKFLGKIL-NH2)
2. CC[C@H](C)[C@H](NC(=O)[C@H](CCCNC(=N)N)NC(=O)CNC(=O)[C@H](CC(C)C)NC(=O)[C@H](Cc1ccccc1)NC(=O)[C@H](CCCCN)NC(=O)[C@H](CO)NC(=O)[C@H](Cc1ccccc1)NC(=O)[C@H](Cc1c[nH]c2ccccc12)NC(=O)[C@H](CCC(N)=O)NC(=O)[C@@H](NC(=O)[C@@H](N)Cc1ccccc1)C(C)C)C(=O)N[C@@H](CC(C)C)C(N)=O
3. CC[C@H](C)[C@H](NC(=O)[C@H](CCCNC(=N)N)NC(=O)CNC(=O)[C@H](CC(C)C)NC(=O)[C@H](Cc1ccccc1)NC(=O)[C@H](CCCNC(=N)N)NC(=O)[C@H](CO)NC(=O)[C@H](Cc1ccccc1)NC(=O)[C@H](Cc1c[nH]c2ccccc12)NC(=O)[C@H](CCC(N)=O)NC(=O)[C@@H](NC(=O)[C@@H](N)Cc1ccccc1)C(C)C)C(=O)N[C@@H](CC(C)C)C(N)=O (H-FVQWFSRFLGRIL-NH2)

-- reply
1: 6; 2: 6; 3: 6

====

Assay: Toxicity in human erythrocytes assessed as hemolysis at 3 uM after 40 mins
Assay type: cell-based, Erythrocyte
Conditions: read-out: Activity
Where a SMILES comes first, the peptide text is derived from it. [ ]: non-standard residue; d: D form. Orn = NCCC[C@H](N)C(=O)O
Tick Y if hemolysis at 40 min, 3 µM is 6% or greater. Tick N if hemolysis at 40 min, 3 µM is less than 6%.

Consider the following illustrative entries.
# compound, class
measured = [
    ("CC[C@H](C)[C@H](NC(=O)[C@H](CCCCN)NC(=O)CNC(=O)[C@H](CC(C)C)NC(=O)[C@H](Cc1ccccc1)NC(=O)[C@H](CCCCN)NC(=O)[C@H](CO)NC(=O)[C@H](Cc1ccccc1)NC(=O)[C@H](Cc1c[nH]c2ccccc12)NC(=O)[C@H](CCC(N)=O)NC(=O)[C@@H](NC(=O)[C@@H](N)Cc1ccccc1)C(C)C)C(=O)N[C@@H](CC(C)C)C(N)=O (H-FVQWFSKFLGKIL-NH2)", "N"),
    ("CC[C@H](C)[C@H](NC(=O)[C@H](CCCN)NC(=O)CNC(=O)[C@H](CC(C)C)NC(=O)[C@H](Cc1ccccc1)NC(=O)[C@H](CCCCN)NC(=O)[C@H](CO)NC(=O)[C@H](Cc1ccccc1)NC(=O)[C@H](Cc1c[nH]c2ccccc12)NC(=O)[C@@H]1CCCN1C(=O)[C@@H](NC(=O)[C@@H](N)Cc1ccccc1)C(C)C)C(=O)N[C@@H](CC(C)C)C(N)=O (H-FVPWFSKFLG[Orn]IL-NH2)", "N"),
    ("CC[C@@H](C)[C@@H](NC(=O)[C@@H](CCCNC(=N)N)NC(=O)CNC(=O)[C@@H](CC(C)C)NC(=O)[C@@H](Cc1ccccc1)NC(=O)[C@@H](CCCCN)NC(=O)[C@@H](CO)NC(=O)[C@@H](Cc1ccccc1)NC(=O)[C@@H](Cc1c[nH]c2ccccc12)NC(=O)[C@@H](CCC(N)=O)NC(=O)[C@H](NC(=O)[C@H](N)Cc1ccccc1)C(C)C)C(=O)N[C@H](CC(C)C)C(N)=O", "Y"),
]

-- ask Hello, I need to know if CC[C@H](C)[C@H](NC(=O)[C@H](CCCN)NC(=O)CNC(=O)[C@H](CC(C)C)NC(=O)[C@H](Cc1ccccc1)NC(=O)[C@H](CCCCN)NC(=O)[C@H](CO)NC(=O)[C@H](Cc1ccccc1)NC(=O)[C@H](Cc1c[nH]c2ccccc12)NC(=O)[C@H](CCC(N)=O)NC(=O)[C@@H](NC(=O)[C@@H](N)Cc1ccccc1)C(C)C)C(=O)N[C@@H](CC(C)C)C(N)=O (H-FVQWFSKFLG[Orn]IL-NH2) has measured hemolysis at 40 min, 3 µM not below 6%. Thanks!
-- reply Y

====

Test: Toxicity in human erythrocytes assessed as hemolysis at 3 uM after 40 mins
Assay type: cell-based, Erythrocyte
Settings: read-out: Activity
Where a SMILES comes first, the peptide text is derived from it.
metric name: hemolysis at 40 min, 3 µM (%)
Give bare numbers, in %.

# compound, hemolysis at 40 min, 3 µM / %
measured = [
    ("CC[C@H](C)[C@H](NC(=O)[C@H](CCCNC(=N)N)NC(=O)CNC(=O)[C@H](CC(C)C)NC(=O)[C@H](Cc1ccccc1)NC(=O)[C@H](CCCNC(=N)N)NC(=O)[C@H](CO)NC(=O)[C@H](Cc1ccccc1)NC(=O)[C@H](Cc1c[nH]c2ccccc12)NC(=O)[C@H](CCC(N)=O)NC(=O)[C@@H](NC(=O)[C@@H](N)Cc1ccccc1)C(C)C)C(=O)N[C@@H](CC(C)C)C(N)=O (H-FVQWFSRFLGRIL-NH2)", 9),
]

Please look at the items below and tell me hemolysis at 40 min, 3 µM for each one, in order.
1. CC[C@H](C)[C@H](NC(=O)[C@H](CCCNC(=N)N)NC(=O)CNC(=O)[C@H](CC(C)C)NC(=O)[C@H](Cc1ccccc1)NC(=O)[C@H](CCCCN)NC(=O)[C@H](CO)NC(=O)[C@H](Cc1ccccc1)NC(=O)[C@H](Cc1c[nH]c2ccccc12)NC(=O)[C@@H]1CCCN1C(=O)[C@H](CC(C)C)NC(=O)[C@@H](N)Cc1ccccc1)C(=O)N[C@@H](CC(C)C)C(N)=O (H-FLPWFSKFLGRIL-NH2)
2. CC[C@H](C)[C@H](NC(=O)[C@H](CCCNC(=N)N)NC(=O)[C@H](CC(C)C)NC(=O)[C@H](CC(C)C)NC(=O)[C@H](Cc1ccccc1)NC(=O)[C@H](CCCCN)NC(=O)[C@H](CO)NC(=O)[C@H](Cc1ccccc1)NC(=O)[C@H](Cc1c[nH]c2ccccc12)NC(=O)[C@H](CCC(N)=O)NC(=O)[C@@H](NC(=O)[C@@H](N)Cc1ccccc1)C(C)C)C(=O)N[C@@H](CC(C)C)C(N)=O (H-FVQWFSKFLLRIL-NH2)

-- reply
9
78

====

System: Streptococcus pyogenes
Test: Antibacterial activity against Streptococcus pyogenes ATCC 21547 after 18 to 20 hrs by microbroth dilution method
Type: functional
Where a SMILES comes first, the peptide text is derived from it.
metric name: MIC (µM)
Answers are plain numbers, in µM.

# molecule, MIC, µM
data = [
    ("CC[C@H](C)[C@H](NC(=O)[C@H](CCCNC(=N)N)NC(=O)CNC(=O)[C@H](CC(C)C)NC(=O)[C@H](Cc1ccccc1)NC(=O)[C@H](CCCNC(=N)N)NC(=O)[C@H](CO)NC(=O)[C@H](Cc1ccccc1)NC(=O)[C@H](Cc1c[nH]c2ccccc12)NC(=O)[C@H](CCCNC(=N)N)NC(=O)[C@@H](NC(=O)[C@@H](N)Cc1ccccc1)C(C)C)C(=O)N[C@@H](CC(C)C)C(N)=O (H-FVRWFSRFLGRIL-NH2)", 3),
]

-- ask Fill in the blank: the reported MIC of `CC[C@@H](C)[C@@H](NC(=O)[C@H](N)CC(C)C)C(=O)N[C@H](CCCNC(=N)N)C(=O)NCC(=O)N[C@H](CC(C)C)C(=O)N[C@H](Cc1ccccc1)C(=O)N[C@H](CCCCN)C(=O)N[C@H](CO)C(=O)N[C@H](Cc1ccccc1)C(=O)N[C@H](Cc1c[nH]c2ccccc12)C(=O)N[C@H](CCC(N)=O)C(=O)N[C@@H](C(=O)N[C@H](Cc1ccccc1)C(N)=O)C(C)C` is ____.
-- reply 6

====

Test: Toxicity in human erythrocytes assessed as hemolysis at 24 uM after 40 mins
Format: cell-based, Erythrocyte
Conditions: read-out: Activity
Where a SMILES comes first, the peptide text is derived from it.
metric name: hemolysis at 40 min, 24 µM (%)
One number for each entry, in %.

# molecule, result
measured = [
    ("CC[C@H](C)[C@H](NC(=O)[C@H](CCCNC(=N)N)NC(=O)CNC(=O)[C@H](CC(C)C)NC(=O)[C@H](Cc1ccccc1)NC(=O)[C@H](CCCCN)NC(=O)[C@H](CO)NC(=O)[C@H](Cc1ccccc1)NC(=O)[C@H](Cc1c[nH]c2ccccc12)NC(=O)[C@H](CCC(N)=O)NC(=O)[C@@H](NC(=O)[C@@H](N)Cc1ccccc1)C(C)C)C(=O)N[C@@H](CC(C)C)C(N)=O [TEMPORIN L]", 94),
]

-- ask Need hemolysis at 40 min, 24 µM, item CC[C@H](C)[C@H](NC(=O)[C@H](CCCNC(=N)N)NC(=O)CNC(=O)[C@H](CC(C)C)NC(=O)[C@H](Cc1ccccc1)NC(=O)[C@H](CCCNC(=N)N)NC(=O)[C@H](CO)NC(=O)[C@H](Cc1ccccc1)NC(=O)[C@H](Cc1c[nH]c2ccccc12)NC(=O)[C@H](CCCNC(=N)N)NC(=O)[C@@H](NC(=O)[C@@H](N)Cc1ccccc1)C(C)C)C(=O)N[C@@H](CC(C)C)C(N)=O (H-FVRWFSRFLGRIL-NH2)
-- reply 100
